Data provenance: paper PMC6355839

- target_entity: the molecule itself
- test: SEC; Superose 6 10/300 GL Increase; 20 mM Tris-Cl pH 8.0, 150 mM NaCl, 0.5 mM TCEP; salt titration up to 1 M NaCl
readout: stoichiometry N
# output: bare number, no unit

### Prompt I am curious: what stoichiometry N value has been reported for ∆48 PGAM5 A4 (WDxxWD of the MM replaced by AAxxAA) (domain or fragment, UniProt Q96HS1 49-289, looked up, PGAM5 long isoform (PGAM5L), residues 49-289, W58A/D59A/W62A/D63A; also called ∆48 A4; A4 mutant; source: E. coli BL21 DE3 pLysS, purified (Ni-NTA, SEC)) GGARPGPGVAAPNAARREPLSLINVRKRNVESGEEELASKLDHYKAKATRHIFLIRHSQYHVDGSLEKDRTLTPLGREQAELTGLRLASLGLKFNKIVHSSMTRAIETTDIISRHLPGVCKVSTDLLREGAPIEPDPPVSHWKPEAVQYYEDGARIEAAFRNYIHRADARQEEDSYEIFICHANVIRYIVCRALQFPPEGWLRLSLNNGSITHLVIRPNGRVALRTLGDTGFMPPDKITRS ?
### Response 2

### Prompt Next: ∆48 PGAM5 (residues 49–289), wild type (domain or fragment, UniProt Q96HS1 49-289, looked up, PGAM5 long isoform (PGAM5L, residues 1-289), residues 49-289: linker domain with the multimerization motif (58-63) and the PGAM phosphatase domain; His6 is followed by a TEV site (ENLYFQS); the methods describe no TEV cleavage; also called Δ48 PGAM5; ∆48 WT; source: E. coli BL21 DE3 pLysS, purified (Ni-NTA, SEC on Superose 6)) GGARPGPGVWDPNWDRREPLSLINVRKRNVESGEEELASKLDHYKAKATRHIFLIRHSQYHVDGSLEKDRTLTPLGREQAELTGLRLASLGLKFNKIVHSSMTRAIETTDIISRHLPGVCKVSTDLLREGAPIEPDPPVSHWKPEAVQYYEDGARIEAAFRNYIHRADARQEEDSYEIFICHANVIRYIVCRALQFPPEGWLRLSLNNGSITHLVIRPNGRVALRTLGDTGFMPPDKITRS
### Response 2
